# Kd annotations
Biological target: T1, Recombinant human CD137 homotrimer (R&D systems), biotinylated (human, UniProt Q07011 24-186, limits assumed, biotinylated with EZ-Link Sulfo-NHS-LC-LC-Biotin)
T1 construct: also called biotinylated CD137
Experiment: SPR (Biacore T200), biotinylated CD137 on streptavidin
Starred links: 1 amine or outer side, 2 acyl side, 3 side chain; linkers in the order of their positions; H or OH if unused. Positions of bridges follow the written chain, without caps; N, C: chain ends. Non-standard residues stand in square brackets, D forms with d. Primed or numbered codes have the meaning given here. No end group written: not given here. TATA′ = 1,3,5-triacryloylhexahydro-1,3,5-triazine scaffold bound to the three cysteines; TATA = O=C(CC[*:1])N1CN(C(=O)CC[*:2])CN(C(=O)CC[*:3])C1; Phe(4-Me) = Cc1ccc(C[C@H](N)C(=O)O)cc1; Ser(ΨH,HPro) = O=C(O)[C@@H]1COCN1; Nle = CCCC[C@H](N)C(=O)O; Ac5c = NC1(C(=O)O)CCCC1

{"binder": "Ac-ACIEEGQ[Phe(4-Me)]CFADPY[Nle]CA (linker 2-9-16 via TATA, also called Ac-(74-01-04) 4MePhe6 Nle12) [BCY8670]", "Kd": "1000 nM"}
{"binder": "ACIEEGQYCFADPYXCA (ACIEEGQYCF[dA]DPY[Nle]CA; cyclised on TATA, also called A-(74-01-04)-A D-Ala8 Nle12) [BCY8217]", "Kd": "500 nM"}
{"binder": "Ac-AC[Ac5c]EEGQYCFADPY[Nle]CA (linker 2-9-16 via TATA, also called Ac-(74-01-04) Ac5c1 Nle12) [BCY8658]", "Kd": "200 nM"}
{"binder": "Ac-ACI[Ser(ΨH,HPro)]EGQYCFADPY[Nle]CA (linker 2-9-16 via TATA′, also called Ac-(74-01-04) Oxa2 Nle12) [BCY7958]", "Kd": "20 nM"}
{"binder": "ACIEEGQYCFXDPYXCA ([Ac]ACIEEGQYCF[Abu]DPY[Nle]CA; cyclised on TATA, also called Ac-(74-01-04) Abu8 Nle12) [BCY8676]", "Kd": "1000 nM"}
{"binder": "Ac-ACIPE[dA]PYCFADPY[Nle]CA (linker 2-9-16 via TATA′, also called Ac-(74-01-04) Pro2 DAla4 Pro5 Nle12) [BCY7961]", "Kd": "10 nM"}
